Source: patent US10238638B2

Target: PAR4 (Homo sapiens (Human))
Sequence (Q96RI0 18-385): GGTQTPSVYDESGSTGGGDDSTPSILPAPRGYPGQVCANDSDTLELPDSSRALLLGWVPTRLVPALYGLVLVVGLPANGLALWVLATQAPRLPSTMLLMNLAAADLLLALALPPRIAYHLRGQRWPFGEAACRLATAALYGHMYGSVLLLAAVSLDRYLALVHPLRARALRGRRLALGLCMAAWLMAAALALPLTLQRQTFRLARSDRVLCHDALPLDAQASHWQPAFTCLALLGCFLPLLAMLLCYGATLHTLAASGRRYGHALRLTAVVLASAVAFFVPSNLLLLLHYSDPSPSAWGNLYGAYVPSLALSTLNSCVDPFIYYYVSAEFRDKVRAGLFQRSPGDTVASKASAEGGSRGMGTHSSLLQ
Test: FLIPR assay in PAR4-expressing HEK293 cells (calcium mobilization)
Details: H-Ala-Phe(4-F)-Pro-Gly-Trp-Leu-Val-Lys-Asn-Gly-NH2-induced calcium mobilization, PAR4 antagonist activity
Give measured pIC50 for each item. Keep answers brief.
Value format note: pIC50 is -log10 of concentration (mol/L); just state the number.

IN: Entry under review: `COc1cc(OCc2csc(-c3ccc(C(=O)N4CCOC[C@@H]4CO)cc3)n2)c2sc(-c3cn4nc(C)sc4n3)nc2c1` . Reported pIC50?
OUT: 5.85

IN: Entry under review: `COc1cc(OCc2csc(-c3ccc(C(=O)N(C)[C@H]4CCOC4)cc3)n2)c2sc(-c3cn4nc(C)ccc4n3)nc2c1` . Reported pIC50?
OUT: 5.19

IN: Entry under review: `COc1cc(OCc2csc(N3CCOCC3)n2)c2sc(-c3cn4nc(C)ccc4n3)nc2c1` . Reported pIC50?
OUT: 5.60

IN: Entry under review: `COc1cc(OCc2csc(-c3ccc(C(=O)N(C)C)cc3)n2)c2sc(-c3cn4nc(C(C)(F)F)sc4n3)nc2c1` . Reported pIC50?
OUT: 5.29

IN: Entry under review: `COc1cc(OCc2csc(-c3ccc(C(=O)N(C)CC#N)cc3)n2)c2sc(-c3cn4nc(C)sc4n3)nc2c1` . Reported pIC50?
OUT: 5.96
